# systemTested: T1, Strep tagged recombinant human PD-1 (human, UniProt Q15116 25-170, limits assumed)
# T1 construct: the whole entry is named; also called strep tagged human PD-1; not shown: Strep tag
# T1 sequence (Q15116 25-170 limits assumed): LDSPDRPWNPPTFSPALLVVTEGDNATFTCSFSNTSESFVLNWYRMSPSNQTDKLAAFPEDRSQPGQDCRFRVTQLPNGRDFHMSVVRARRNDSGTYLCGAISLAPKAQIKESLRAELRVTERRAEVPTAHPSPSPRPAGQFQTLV
# protocolNotes: SPR Biacore T200, strep-tagged PD-1 amine-coupled, single cycle kinetics
Below, each entry is listed alongside its reported koff.

Worked set:
{"binder": "1.57-9GS-1.57 (other, bivalent construct of two VH domains in one chain) QVQLVESGGGLVKPGGSLRLSCAASGFTFSDNSMTWMRQAPGKGLEWVSYISSGGGVIFYADSVKGRFTISRDNAKNSLYLQMNSLRADDTAVYYCAREAPLRLGESPHDAFDISGQGTMVTVSSGGGGSGGGGSGGGGSGGGGSGGGGSGGGGSGGGGSGGGGSGGGGSQVQLVESGGGLVKPGGSLRLSCAASGFTFSDNSMTWMRQAPGKGLEWVSYISSGGGVIFYADSVKGRFTISRDNAKNSLYLQMNSLRADDTAVYYCAREAPLRLGESPHDAFDISGQGTMVTVSS", "koff": "1.4e-05 s⁻¹"}
{"binder": "1.57-4GS-1.57 (other, bivalent construct of two VH domains in one chain) QVQLVESGGGLVKPGGSLRLSCAASGFTFSDNSMTWMRQAPGKGLEWVSYISSGGGVIFYADSVKGRFTISRDNAKNSLYLQMNSLRADDTAVYYCAREAPLRLGESPHDAFDISGQGTMVTVSSGGGGSGGGGSGGGGSGGGGSQVQLVESGGGLVKPGGSLRLSCAASGFTFSDNSMTWMRQAPGKGLEWVSYISSGGGVIFYADSVKGRFTISRDNAKNSLYLQMNSLRADDTAVYYCAREAPLRLGESPHDAFDISGQGTMVTVSS", "koff": "1.54e-05 s⁻¹"}

# evaluate next
Asked: Endpoint output: koff of Humabody® 1.84 (VHH, human VH single domain antibody) VHH: EVQLVESGGGLVKPGGSLRLSCAASGFTFSDESMTWMRQAPGKGLEWVSYISSGGGVKFYTDSVKGRFTISRDNAKNSLYLQMNSLRAEDTAVYYCAREAPLRLGESPHDAFDISGQGTMVTVSS . Value?
Given back: 7.6e-05 s⁻¹
